test: 8581 concentration in serum after i.p. injection; format: in vivo, mice; conditions: B16;129F1, mouse, ip, 3 h after i.p. injection, 1 mg/kg, control mice
outcome_measure: concentration at 3 h (ng/mL)
Just the number in ng/mL, nothing appended.

*Q* Answer with reported concentration at 3 h of FC(F)c1ncn2c1Cn1ncnc1-c1cc(Br)ccc1-2
*A* 11.9

###

assay: 8581 concentration in serum after i.p. injection; format: in vivo, mice; details: B16;129F1, mouse, ip, 24 h after i.p. injection, 0.1 mg/kg, control mice
outcome_measure: concentration at 24 h

*Q* Answer with reported concentration at 24 h of FC(F)c1ncn2c1Cn1ncnc1-c1cc(Br)ccc1-2 [Compound 8581]
*A* < 0.5 ng/mL

###

Please respond with reported Efficacy GABA A α5β3γ2 for every item in the list.
biological target: human GABA A α5β3γ2 (Homo sapiens, UniProt P18507+P31644); experiment: Two-microelectrode voltage clamp, modulation of GABA EC10 response in Xenopus oocytes, α5β3γ2; assay type: cell-based; parameters: expressed in transfected cells; host or cells: Xenopus laevis oocytes; conditions: % change of submaximal (EC10) response to GABA at 30×Ki
Just the number in %, nothing appended.

*Q* Answer with reported Efficacy GABA A α5β3γ2 of Cc1ncn2c1Cn1nc(CN3CCCC3=O)nc1-c1cc(Br)ccc1-2
*A* −31

*Q* Answer with reported Efficacy GABA A α5β3γ2 of Cc1onc(-c2ccccn2)c1COc1ccc(C(=O)N2CCOCC2)cn1
*A* −31

*Q* Answer with reported Efficacy GABA A α5β3γ2 of Cc1onc(-c2ccc(F)cn2)c1COc1ccc(C(=O)N2CCS(=O)(=O)CC2)cn1
*A* −33

*Q* Answer with reported Efficacy GABA A α5β3γ2 of Cc1onc(-c2ccc(F)cc2)c1COc1ccc(C(=O)N2CCS(=O)(=O)CC2)cn1
*A* −39

*Q* Answer with reported Efficacy GABA A α5β3γ2 of Cc1onc(-c2ccccc2)c1COc1ccc(C(=O)N2CC3(COC3)C2)cn1
*A* −35

*Q* Answer with reported Efficacy GABA A α5β3γ2 of FC(F)c1ncn2c1Cn1ncnc1-c1cc(Br)ccc1-2
*A* −46

*Q* Answer with reported Efficacy GABA A α5β3γ2 of Clc1ccc2c(c1)-c1ncnn1Cc1c(Cl)ncn1-2
*A* −33

*Q* Answer with reported Efficacy GABA A α5β3γ2 of Cc1onc(-c2ccccc2)c1COc1ccc(C(=O)NC(C)C)cn1
*A* −50

*Q* Answer with reported Efficacy GABA A α5β3γ2 of FCc1ncn2c1Cn1ncnc1-c1cc(F)ccc1-2
*A* −35

*Q* Answer with reported Efficacy GABA A α5β3γ2 of Cc1onc(-c2ccc(F)cn2)c1COc1ccc(C(=O)NC(C)C)cn1
*A* −33

*Q* Answer with reported Efficacy GABA A α5β3γ2 of N#Cc1ccc2c(c1)-c1ncnn1Cc1c(C(F)F)ncn1-2
*A* −37

*Q* Answer with reported Efficacy GABA A α5β3γ2 of Clc1ncn2c1Cn1ncnc1-c1ccccc1-2
*A* −41

*Q* Answer with reported Efficacy GABA A α5β3γ2 of Cc1nc2n(n1)Cc1c(Cl)ncn1-c1ccc(C#N)cc1-2
*A* −42

###

molecular target: human GABA A α3β3γ2 (Homo sapiens, UniProt P18507+P34903); assay: [3H]flumazenil competition binding, HEK293 cells expressing human α3β3γ2; parameters: expressed in transfected cells; host or cells: HEK293; details: binding selectivity ratio
Please respond with reported hKi α3/hKi α5 for every item in the list.

*Q* Answer with reported hKi α3/hKi α5 of Fc1ccc2c(c1)-c1ncnn1Cc1c(Br)ncn1-2 [Compound 8590]
*A* 8

*Q* Answer with reported hKi α3/hKi α5 of Cc1nc2n(n1)Cc1c(CF)ncn1-c1ccc(Cl)cc1-2 [Compound 8584]
*A* 47

*Q* Answer with reported hKi α3/hKi α5 of FC(F)c1ncn2c1Cn1ncnc1-c1ccccc1-2 [Compound 8583]
*A* 7

*Q* Answer with reported hKi α3/hKi α5 of Clc1ccc2c(c1)-c1ncnn1Cc1c(Cl)ncn1-2 [Compound 8586]
*A* 7

*Q* Answer with reported hKi α3/hKi α5 of Clc1ncn2c1Cn1ncnc1-c1ccccc1-2 [Compound 8585]
*A* 2

*Q* Answer with reported hKi α3/hKi α5 of Cc1onc(-c2ccc(F)cc2)c1COc1ccc(C(=O)N2CCS(=O)(=O)CC2)cn1 [Compound R1]
*A* 104

*Q* Answer with reported hKi α3/hKi α5 of FCc1ncn2c1Cn1ncnc1-c1cc(F)ccc1-2 [Compound 8580]
*A* 3

*Q* Answer with reported hKi α3/hKi α5 of Cc1onc(-c2ccccn2)c1COc1ccc(C(=O)N2CCOCC2)cn1 [Compound T1]
*A* 27

*Q* Answer with reported hKi α3/hKi α5 of Cc1ncn2c1Cn1nc(CN3CCCC3=O)nc1-c1cc(Br)ccc1-2 [Compound 8591]
*A* 73

*Q* Answer with reported hKi α3/hKi α5 of Cc1onc(-c2ccccc2)c1COc1ccc(C(=O)NC(C)C)cn1 [Compound O1]
*A* 85

*Q* Answer with reported hKi α3/hKi α5 of Cc1onc(-c2ccc(Cl)cc2)c1COc1ccc(C(=O)N2CCOCC2)cn1 [Compound S1]
*A* 41

*Q* Answer with reported hKi α3/hKi α5 of Cc1nc2n(n1)Cc1c(Cl)ncn1-c1ccc(Br)cc1-2 [Compound 8589]
*A* 35

*Q* Answer with reported hKi α3/hKi α5 of N#Cc1ccc2c(c1)-c1ncnn1Cc1c(C(F)F)ncn1-2 [Compound 8582]
*A* 6

*Q* Answer with reported hKi α3/hKi α5 of Cc1onc(-c2ccccc2)c1COc1ccc(C(=O)N2CC3(COC3)C2)cn1 [Compound Q1]
*A* 26

*Q* Answer with reported hKi α3/hKi α5 of FC(F)c1ccc2c(c1)-c1ncnn1Cc1c(Cl)ncn1-2 [Compound 8588]
*A* 15

*Q* Answer with reported hKi α3/hKi α5 of Cc1onc(-c2ccc(F)cn2)c1COc1ccc(C(=O)N2CCS(=O)(=O)CC2)cn1 [Compound V1]
*A* 63

*Q* Answer with reported hKi α3/hKi α5 of Cc1nc2n(n1)Cc1c(Cl)ncn1-c1ccc(C#N)cc1-2 [Compound 8587]
*A* 10

*Q* Answer with reported hKi α3/hKi α5 of Cc1onc(-c2ccc(Cl)cn2)c1COc1ccc(C(=O)N2CCSCC2)cn1 [Compound W1]
*A* 44

*Q* Answer with reported hKi α3/hKi α5 of FC(F)c1ncn2c1Cn1ncnc1-c1cc(Br)ccc1-2 [Compound 8581]
*A* 17

###

target: human GABA A α1β2/3γ2 (Homo sapiens, UniProt P14867+P18507); test: [3H]flumazenil competition binding, HEK293 cells expressing human α1β2/3γ2; set-up: expressed in transfected cells; host or cells: HEK293; details: [3H]flumazenil competition, human α1β2/3γ2; read-out: hKi α1
outcome_measure: Ki
Be sure to follow the number with its unit.

*Q* Answer with reported Ki of Cc1onc(-c2ccc(Cl)cc2)c1COc1ccc(C(=O)N2CCOCC2)cn1
*A* 551 nM

*Q* Answer with reported Ki of Cc1nc2n(n1)Cc1c(CF)ncn1-c1ccc(Cl)cc1-2
*A* 125 nM

*Q* Answer with reported Ki of Cc1onc(-c2ccc(F)cc2)c1COc1ccc(C(=O)N2CCS(=O)(=O)CC2)cn1
*A* 985 nM

###

assay: 8581 concentration in serum after i.p. injection; format: in vivo, mice; conditions: mouse, ip, 7 h after i.p. injection, 0.1 mg/kg, Nf1+/− mice
outcome_measure: concentration at 7 h

*Q* Answer with reported concentration at 7 h of FC(F)c1ncn2c1Cn1ncnc1-c1cc(Br)ccc1-2
*A* < 0.5 ng/mL

###

Please respond with reported Efficacy GABA A α3β3γ2 for every item in the list.
biological target: human GABA A α3β3γ2 (Homo sapiens, UniProt P18507+P34903); assay: Two-microelectrode voltage clamp, modulation of GABA EC10 response in Xenopus oocytes, α3β3γ2; format: cell-based; parameters: expressed in transfected cells; host or cells: Xenopus laevis oocytes; conditions: % change of EC10 GABA response at 3 μM or at 30×Ki if Ki below 0.1 μM

*Q* Enter measured Efficacy GABA A α3β3γ2, system human GABA A α3β3γ2 (Homo sapiens, UniProt P18507+P34903), for the compound shown: Cc1onc(-c2ccccc2)c1COc1ccc(C(=O)N2CC3(COC3)C2)cn1
*A* −17%

*Q* Enter measured Efficacy GABA A α3β3γ2, system human GABA A α3β3γ2 (Homo sapiens, UniProt P18507+P34903), for the compound shown: Clc1ccc2c(c1)-c1ncnn1Cc1c(Cl)ncn1-2
*A* +7%

*Q* Enter measured Efficacy GABA A α3β3γ2, system human GABA A α3β3γ2 (Homo sapiens, UniProt P18507+P34903), for the compound shown: FC(F)c1ncn2c1Cn1ncnc1-c1cc(Br)ccc1-2
*A* −1%

*Q* Enter measured Efficacy GABA A α3β3γ2, system human GABA A α3β3γ2 (Homo sapiens, UniProt P18507+P34903), for the compound shown: Cc1onc(-c2ccc(F)cc2)c1COc1ccc(C(=O)N2CCS(=O)(=O)CC2)cn1
*A* −2%

*Q* Enter measured Efficacy GABA A α3β3γ2, system human GABA A α3β3γ2 (Homo sapiens, UniProt P18507+P34903), for the compound shown: Cc1ncn2c1Cn1nc(CN3CCCC3=O)nc1-c1cc(Br)ccc1-2
*A* +23%

*Q* Enter measured Efficacy GABA A α3β3γ2, system human GABA A α3β3γ2 (Homo sapiens, UniProt P18507+P34903), for the compound shown: Cc1onc(-c2ccc(F)cn2)c1COc1ccc(C(=O)NC(C)C)cn1
*A* −21%

*Q* Enter measured Efficacy GABA A α3β3γ2, system human GABA A α3β3γ2 (Homo sapiens, UniProt P18507+P34903), for the compound shown: Cc1onc(-c2ccc(F)cn2)c1COc1ccc(C(=O)N2CCS(=O)(=O)CC2)cn1
*A* +16%

*Q* Enter measured Efficacy GABA A α3β3γ2, system human GABA A α3β3γ2 (Homo sapiens, UniProt P18507+P34903), for the compound shown: Cc1onc(-c2ccccc2)c1COc1ccc(C(=O)NC(C)C)cn1
*A* −43%

*Q* Enter measured Efficacy GABA A α3β3γ2, system human GABA A α3β3γ2 (Homo sapiens, UniProt P18507+P34903), for the compound shown: Cc1onc(-c2ccccn2)c1COc1ccc(C(=O)N2CCOCC2)cn1
*A* +9%

This collection of values is drawn from patent US8835425B2.
